# protocol_text: Test Example 1. Solubility Test
# Assay type: physicochemical
# assay_context: pH 1.2, simulated gastric fluid, thermodynamic from solid; First fluid for dissolution test (pH1.2), shaken at 37° C. for 2 hours, mean of two measurements; read-out: Solubility of Compound A
reported_property: solubility at 2 h (µg/mL)
Record the value in µg/mL, omitting the unit from your answer.

// query Any idea what solubility at 2 h was measured for N#Cc1cc(-c2nc3c(O)ncnc3s2)ccc1Oc1ccccc1 [Comparative Example 9] ?
// result 0.39

---

# protocol_text: Test Example 1. Solubility Test
# Format: physicochemical
# assay_context: pH 6.8, aqueous buffer, thermodynamic from solid; Second fluid for dissolution test (pH6.8), shaken at 37° C. for 2 hours, mean of two measurements; read-out: Solubility of Compound A
reported_property: solubility at 2 h (µg/mL)
// units = µg/mL; emit number, no label

// query If you can, please state the reported solubility at 2 h value of N#Cc1cc(-c2nc3c(O)ncnc3s2)ccc1Oc1ccccc1 .
// result 0.49
